// reported cytotoxicity at 70.5 h for each item listed
Assay: Human HepG2 cell viability assay in 384 well format
Type: toxicity, cell-based
Set-up: dose 125 nL, time 70.5 hour; concentration not given beside the values
Details: HepG2 cells, read-out: Inhibition
Return type: number; implicit unit %.

O=C(NCCn1ccnc1)c1ccn(-c2ccccc2)n1: -1.21
Cc1cnn(CC2CCCN2Cc2nccn2CC(F)(F)F)c1 (configuration not stated): 0.0433
Cc1nc(N2CCCC2)nc2c1CCN(Cc1nccn1C)CC2: -10.2
O=C(NC[C@]12COC[C@H]1CN(Cc1cccnc1)C2)c1ccno1: -14.7
CCn1nc(C)c2nc(C(C)C)nc(NCCOC)c21: -5.06

Query: I am curious: what cytotoxicity at 70.5 h value has been reported for `Cc1ccc(Oc2ncccc2CNC(=O)NC2CCCCC2)cn1` ?
Reply: -6.45

Query: Another compound: COc1cc(NC(=O)NCC2CCCO2)cc(OC)c1 (configuration not stated)
Reply: 16.9

Query: Another compound: Cc1nnc(-c2cccc(N3CCC(NC(C)CC(C)C)CC3)c2)s1 (configuration not stated)
Reply: -4.36

Query: Another compound: `OCc1cnc(Nc2ccccc2)nc1`
Reply: 10.1

Query: Another compound: CCN(CC1CCCO1)C(=O)Nc1cccc(N2CCOCC2)c1 (configuration not stated)
Reply: 0.519

Query: Another compound: CC[C@@H](C)[C@H](NC(=O)NC1CCS(=O)(=O)C1)C(=O)NCc1ccncc1 (some centres not stated)
Reply: 10.2

Query: Another compound: COc1ccc2c(c1)C1(CCNCC1)CC2NC1CC1 (configuration not stated)
Reply: 27.2

* * *

// reported cytotoxicity at 70.5 h for each item listed
Assay: Human HepG2 cell viability assay in 384 well format
Type: toxicity, cell-based
Design: dose 125 nL, time 70.5 hour; concentration not given beside the values
Details: HepG2 cells, read-out: Inhibition
Return type: number; implicit unit %.

CCN1CC2(CCOCC2)c2cc(NS(=O)(=O)CC)ccc21: -2.27
Cc1sc(C(=O)NC(C)C)cc1S(=O)(=O)N(C)C: -5.26
CCS(=O)(=O)c1ccc(N2CCC(NC(=O)c3ccccn3)CC2)cc1: 29
COCCc1noc(C2CCCN(c3nc(N)nc4c3CCCC4)C2)n1 (stereo unspecified): 3.87
COc1cccc(CNc2ccc(F)c(Cl)c2)c1O: -4.8
CCN(C(=O)C(C)C)C(c1cccnc1)c1ccc2c(c1)CCO2 (stereo unspecified): 18.4
COc1c(CNCCC(=O)NC2CCCC2)c(C(C)C)nn1C: 0.44
COCC(=O)N1CCN(C)C(=O)C(Cc2ccccc2-c2cccs2)C1 (stereo unspecified): 1.61

Query: I am curious: what cytotoxicity at 70.5 h value has been reported for `O=C(c1cc2cccc(F)c2[nH]1)N1C[C@@H](O)[C@H](N2CCOCC2)C1` ?
Reply: -5.87

Query: Another compound: `COc1ccc2c(c1)CCCN2Cc1nc2c(cnn2C)c(=O)[nH]1`
Reply: -11.4

Query: Another compound: O=C(NCCCn1cncn1)NCC(c1ccco1)N1CCCCC1 (stereo unspecified)
Reply: -18.7

* * *

Test: Human HepG2 cell viability assay in 384 well format
Format: toxicity, cell-based
Parameters: dose 125 nL, time 70.5 hour; concentration not given beside the values
Conditions: HepG2 cells, read-out: Inhibition
quantityMeasured: cytotoxicity at 70.5 h (%)
Return type: number; implicit unit %.

CCOC1CCN(C(=O)c2ccc(-c3cccc(C)c3)[nH]c2=O)CC1: -8.75
CC(C)(C)c1c[nH]c([C@@H]2COCCN2C2CCC2)n1: -4.17
CCn1nc(C)c2nnn(CC(=O)Nc3cccc(F)c3)c(=O)c21: -5.5

Query: I am curious: what cytotoxicity at 70.5 h value has been reported for `CCCN(Cc1nccn1C)C(=O)c1cc(C)nc(C)n1` ?
Reply: -9.67

Query: Another molecule: `O=C(CN(CC1CCC1)CC(F)(F)F)N1CCCC1`
Reply: -6.18

Query: Another molecule: O=C(Cn1cc(Cl)cn1)N1CCCC(c2ccn[nH]2)C1 (centres undefined)
Reply: -7.33

Query: Another molecule: CCc1nc(CNC2CCCCNC2=O)cs1 (centres undefined)
Reply: -6.64

Query: Another molecule: `O=C(O)c1cc2c(nc1N1CCCC1)CCN(C1CCOCC1)CC2`
Reply: 12
